- protocol description: Pharmacokinetic study in rats: plasma 2C-B after IV/PO 2C-B or PO 2C-B prodrugs
- condition parameters: male, Sprague-Dawley, rat, plasma, iv, 1 mg/kg, AUC0-last, 2C-B dosed IV 1 mg/kg, male SD rats, analyte 2C-B in plasma, individual animals
property measured: AUC(0-t)

Asked: State the recorded AUC(0-t) for this entry: COc1cc(CCN)c(OC)cc1Br [Example 2C-B, 4-bromo-2,5-dimethoxyphenethylamine]
Given back: 65.6 ng·h/mL

* * *

- protocol description: Pharmacokinetic study in rats: plasma 2C-B after IV/PO 2C-B or PO 2C-B prodrugs
- condition parameters: male, Sprague-Dawley, rat, plasma, iv, 1 mg/kg, T1/2, 2C-B dosed IV 1 mg/kg, male SD rats, analyte 2C-B in plasma, mean of 3 animals
property measured: half-life (min)
API: value field is a number in min; no unit string.

Asked: Would you mind telling me what half-life value was observed for COc1cc(CCN)c(OC)cc1Br [Example 2C-B, 4-bromo-2,5-dimethoxyphenethylamine] ?
Given back: 23.3
